Assay: Activity against [Ca2+]-ATPase in rabbit white muscle sarcoplasmic reticulum vesicles
Reported values of IC50 for individual entries
endpoint: IC50

C/C=C(/C)C(=O)O[C@H]1C(C)=C2[C@H]([C@@H]1O)[C@@](C)(O)C[C@H](OC(=O)CCC)[C@@]1(O)[C@H]2O[C@H]2OC(C)(C)O[C@]21C	60.6 µM
C/C=C(/C)C(=O)O[C@H]1C(C)=C2[C@H]([C@@H]1OC(=O)CCCCC)[C@@](C)(O)C[C@H](OC(=O)CCC)[C@@]1(O)[C@H]2O[C@H]2OC(C)(C)O[C@]21C	5.59 µM

----------
Test: Activity against [Ca2+]-ATPase in rabbit white skeletal muscle sarcoplasmic reticulum vesicles
endpoint: IC50 (nM)

C/C=C(/C)C(=O)O[C@H]1C(C)=C2[C@H]([C@@H]1OC(=O)CCCCC)[C@@](C)(OC(C)=O)C[C@H](OC(=O)CCC)[C@@]1(O)[C@H]2O[C@@H](O)[C@@]1(C)O.C/C=C(/C)C(=O)O[C@H]1C(C)=C2[C@H]([C@@H]1OC(=O)CCCCC)[C@@](C)(OC(C)=O)C[C@H](OC(=O)CCC)[C@@]1(O)[C@H]2O[C@H](O)[C@@]1(C)O	15.6
C/C=C(/C)C(=O)O[C@H]1C(C)=C2[C@H]([C@@H]1OC(=O)CCCCC)[C@@](C)(OC(C)=O)C[C@H](OC(=O)CCC)[C@@]1(O)[C@H]2OC(=O)[C@@]1(C)O	9.8

----------
Reported values of pIC50 for individual entries
Test: Activity against [Ca2+]-ATPase in rabbit white skeletal muscle sarcoplasmic reticulum vesicles
pIC50: −log10 of the molar value.
endpoint: pIC50

C/C=C(/C)C(=O)O[C@H]1C(C)=C2[C@H]([C@@H]1OC(=O)CCCCC)[C@@](C)(OC(C)=O)C[C@H](OC(=O)CCC)[C@@]1(O)[C@H]2O[C@H](OCC)[C@@]1(C)O	7.95
C/C=C(/C)C(=O)O[C@H]1C(C)=C2[C@H]([C@@H]1OC(=O)CCCCC)[C@@](C)(OC(C)=O)C[C@H](OC(=O)CCC)[C@@]1(O)[C@H]2O[C@H]2OC(C)(C)O[C@]21C	6.80
C/C=C(/C)C(=O)O[C@H]1C(C)=C2[C@H]([C@@H]1OC(=O)CCCCCCC)[C@@](C)(OC(C)=O)C[C@H](OC(=O)CCC)[C@@]1(O)[C@H]2OC(=O)[C@@]1(C)O [THAPSIGARGIN]	8.02

These entries and their values trace back to ChEMBL document CHEMBL1128581.
